Entry source: paper PMC3004048

I'd appreciate it if you could supply Kd values for the items below.
target: Lot6p (Saccharomyces cerevisiae, UniProt Q07923); type: biochemical
Reply with just the number (in mM).

Asked: Requested read-out: Kd. Entry: "NC(=O)C1=CN([C@@H]2O[C@H](COP(=O)(O)OP(=O)(O)OC[C@H]3O[C@@H](n4cnc5c(N)ncnc54)[C@H](O)[C@@H]3O)[C@@H](O)[C@H]2O)C=CC1"
Given back: 9.6

Asked: Quick one: Kd for "NC(=O)C1=CN([C@@H]2O[C@H](COP(=O)(O)OP(=O)(O)OC[C@H]3O[C@@H](n4cnc5c(N)ncnc54)[C@H](OP(=O)(O)O)[C@@H]3O)[C@@H](O)[C@H]2O)C=CC1" ?
Given back: 12.5

###

Biological target: Lot6p (Saccharomyces cerevisiae)
Sequence (Q07923 1-191): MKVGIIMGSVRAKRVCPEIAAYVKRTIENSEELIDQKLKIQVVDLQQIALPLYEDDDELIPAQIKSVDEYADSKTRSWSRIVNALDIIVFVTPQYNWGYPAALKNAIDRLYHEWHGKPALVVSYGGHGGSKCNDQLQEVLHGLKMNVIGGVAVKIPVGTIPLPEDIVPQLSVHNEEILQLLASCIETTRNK
Assay: stopped-flow oxidation of reduced enzyme at […] nm
Type: biochemical
Cut-off 700000 M⁻¹ s⁻¹ on k2: below means criterion met, at or above means criterion not met.

Asked: Find out if reported k2 for "O=C1C=CC(=O)C=C1" is less than 700000 M⁻¹ s⁻¹
Given back: criterion not met

Asked: k2 under 700000 M⁻¹ s⁻¹? Item: "O=C1C=C(S(=O)(=O)O)c2ccccc2C1=O"
Given back: criterion met

Asked: Confirm or reject: k2 of O=C1C=C(O)C(=O)c2ccccc21 [2-Hydroxy-1,4-naphthoquinone] lies strictly below 700000 M⁻¹ s⁻¹
Given back: criterion met

Asked: Hello, is k2 of the following compound strictly smaller than 700000 M⁻¹ s⁻¹? "COC1=C(OC)C(=O)C(C)=CC1=O"
Given back: criterion not met

Asked: Does the reported k2 of "CC1=CC(=O)c2ccccc2C1=O" stay below 700000 M⁻¹ s⁻¹?
Given back: criterion met

Asked: Please determine if O=C1c2ccccc2C(=O)c2c1cccc2S(=O)(=O)O [Na-anthraquinone, α-sulfonate] is below 700000 M⁻¹ s⁻¹ in terms of k2.
Given back: criterion met
